These entries and their values trace back to patent US12618050B2.

Assay Summary: Protein expression levels of GDH variants
Set-up: species or system Escherichia coli
Particulars: expressed in E. coli

{"Molecule": "I195T (protein) MYPDLKGKVVAITGAASGLGKAMAIRFGKEQAKVVINYYSNKQDPNEVKEEVIKAGGEAVVVQGDVTKEEDVKNIVQTAIKEFGTLDIMINNAGLENPVPSHEMPLKDWDKVIGTNLTGAFLGSREAIKYFVENDIKGNVINMSSVHEVIPWPLFVHYAASKGGIKLMTETLALEYAPKGIRVNNIGPGAINTPTNAEKFADPKQKADVESMIPMGYIGEPEEIAAVAAWLASKEASYVTGITLFADGGMTQYPSFQAGRG", "Expression level [μg protein/ml culture]": 105.51}
{"Molecule": "M143T (protein) MYPDLKGKVVAITGAASGLGKAMAIRFGKEQAKVVINYYSNKQDPNEVKEEVIKAGGEAVVVQGDVTKEEDVKNIVQTAIKEFGTLDIMINNAGLENPVPSHEMPLKDWDKVIGTNLTGAFLGSREAIKYFVENDIKGNVINTSSVHEVIPWPLFVHYAASKGGIKLMTETLALEYAPKGIRVNNIGPGAINTPINAEKFADPKQKADVESMIPMGYIGEPEEIAAVAAWLASKEASYVTGITLFADGGMTQYPSFQAGRG", "Expression level [μg protein/ml culture]": 94.55}
